Recorded inhibition at 1 µM, one value per entry.
Molecular target: human recombinant adrenergic α1D receptor (Homo sapiens, UniProt P25100)
Construct: expressed in transfected cells; host or cells: human embryonic kidney (HEK-293) cells
Sequence (P25100 whole entry): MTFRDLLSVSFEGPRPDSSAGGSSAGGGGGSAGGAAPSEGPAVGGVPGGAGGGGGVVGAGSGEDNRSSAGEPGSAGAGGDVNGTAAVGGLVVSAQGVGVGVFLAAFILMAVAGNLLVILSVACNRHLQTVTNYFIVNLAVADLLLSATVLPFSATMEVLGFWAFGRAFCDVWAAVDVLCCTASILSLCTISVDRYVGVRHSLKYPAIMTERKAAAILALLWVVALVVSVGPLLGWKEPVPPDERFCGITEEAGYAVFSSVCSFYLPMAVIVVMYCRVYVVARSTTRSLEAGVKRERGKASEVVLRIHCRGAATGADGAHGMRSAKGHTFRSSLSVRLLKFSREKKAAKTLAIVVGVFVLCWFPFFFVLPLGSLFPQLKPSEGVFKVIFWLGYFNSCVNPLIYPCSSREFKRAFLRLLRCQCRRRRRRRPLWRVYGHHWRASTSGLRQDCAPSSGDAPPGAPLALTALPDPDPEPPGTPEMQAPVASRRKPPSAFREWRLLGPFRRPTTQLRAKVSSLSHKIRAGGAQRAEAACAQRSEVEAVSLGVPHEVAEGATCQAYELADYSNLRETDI
Experiment: Adrenergic α1D radioligand binding ([3H]Prozosin)
Details: percent inhibition of specific binding; compound at 1 μM; read-out: Inhibition of ligand binding, Adrenergic α1D
test-readout: inhibition at 1 µM (%)

INSERT INTO assay_data (molecule, test_readout, endpoint_value) VALUES
  ('CN1CCc2c(c3cc(Cl)ccc3n2CC(O)(c2ccc(F)cc2)C2CC2)C1 (stereo not drawn)', 'inhibition at 1 µM', 62),
  ('Cc1ccc2c(c1)c1c(n2/C=C/c2ccccc2)CCN(C)C1', 'inhibition at 1 µM', 98),
  ('Cc1ccc2c(c1)c1c(n2CC(C)(O)c2cccnc2)CCN(C)C1 (stereo not drawn)', 'inhibition at 1 µM', 33),
  ('Cc1ccc2c(c1)c1c(n2CC(O)(c2ccc(F)cc2)C2CCCCC2)CCN(C)C1 (stereo not drawn)', 'inhibition at 1 µM', 49),
  ('Cc1ccc2c(c1)c1c(n2/C=C/c2ccc(C)nc2)CCN(C)C1', 'inhibition at 1 µM', 89),
  ('CN1CCc2c(c3cc(Cl)ccc3n2C/C(=C/CCO)c2ccc(F)cc2)C1', 'inhibition at 1 µM', 60),
  ('C/C(=C\n1c2c(c3cc(Cl)ccc31)CN(C)CC2)c1ccc(F)cc1', 'inhibition at 1 µM', 96),
  ('CN1CCc2c(c3cc(Cl)ccc3n2CC(C)(O)c2ccncc2)C1 (stereo not drawn)', 'inhibition at 1 µM', 84),
  ('Cc1ccc2c(c1)c1c(n2CC(O)c2ccc(F)cc2)CCN(C)C1 (stereo not drawn)', 'inhibition at 1 µM', 88);

----------
Target: human recombinant serotonin (5-Hydroxytryptamine) 5-HT7 receptor (Homo sapiens, UniProt P34969)
Sequence (P34969 whole entry): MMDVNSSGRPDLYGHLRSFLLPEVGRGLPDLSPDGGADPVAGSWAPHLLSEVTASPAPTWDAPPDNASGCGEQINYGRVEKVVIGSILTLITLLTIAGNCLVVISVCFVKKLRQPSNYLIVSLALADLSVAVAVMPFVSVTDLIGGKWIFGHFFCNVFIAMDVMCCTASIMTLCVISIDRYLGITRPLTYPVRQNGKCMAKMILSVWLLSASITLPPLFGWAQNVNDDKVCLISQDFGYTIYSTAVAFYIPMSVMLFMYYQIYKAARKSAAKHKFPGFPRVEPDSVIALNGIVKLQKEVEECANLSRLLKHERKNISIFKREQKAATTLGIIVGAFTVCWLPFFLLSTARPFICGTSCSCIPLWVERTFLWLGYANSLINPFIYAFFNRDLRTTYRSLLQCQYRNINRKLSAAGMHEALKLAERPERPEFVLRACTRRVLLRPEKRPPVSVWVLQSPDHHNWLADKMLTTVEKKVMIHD
Assay: Serotonin 5-HT7 radioligand binding ([3H]LSD)
Conditions: compound at 1 μM; read-out: Inhibition of ligand binding, Serotonin 5-HT7 (percent inhibition of specific binding)
test-readout: inhibition at 1 µM (%)

INSERT INTO measurements (compound, endpoint_value) VALUES
  ('C/C(=C\n1c2c(c3ccccc31)CN(C)CC2)c1ccncc1', 73),
  ('C/C(=C\n1c2c(c3cc(C)ccc31)CN(C)CC2)c1cccc(F)c1', 100),
  ('C/C(=C/n1c2c(c3cc(C)ccc31)CN(C)CC2)c1ccccc1Cl', 100),
  ('Cc1ccc2c(c1)c1c(n2C/C(=C/C(=O)O)c2ccc(F)cc2)CCN(C)C1', 52),
  ('C/C(=C\n1c2c(c3cccc(Cl)c31)CN(C)CC2)c1ccncc1', 69),
  ('C/C(=C\n1c2c(c3cc(F)ccc31)CN(C)CC2)c1ccncc1', 79),
  ('CNC(=O)c1ccc2c(c1)c1c(n2C#Cc2ccc(F)cc2)CCN(C)C1', 16),
  ('COc1ccc2c(c1)c1c(n2/C=C(\C)c2ccncc2)CCN(C)C1', 88),
  ('COc1ccc(C#Cn2c3c(c4cc(Cl)ccc42)CN(C)CC3)cc1F', 65),
  ('Cc1ccc(C(O)Cn2c3c(c4cc(C)ccc42)CN(C)CC3)cc1 (racemic)', 98),
  ('CN1CCc2c(c3cc(C(=O)O)ccc3n2C#Cc2ccc(F)cc2)C1', 22),
  ('COC(=O)c1ccc2c(c1)c1c(n2C#Cc2ccc(F)cc2)CCN(C)C1', 17),
  ('C/C(=C\n1c2c(c3cc(Cl)ccc31)CN(C)CC2)c1ccccc1Cl', 98),
  ('C/C(=C/n1c2c(c3cc(C)ccc31)CN(C)CC2)c1cc(F)c(F)cc1Cl', 104),
  ('C/C(=C\n1c2c(c3cc(Cl)ccc31)CN(C)CC2)c1ccc(F)cc1', 93),
  ('C/C(=C\n1c2c(c3cc(C)ccc31)CN(C)CC2)c1ccncc1', 93),
  ('Cc1ccc2c(c1)c1c(n2CC(O)c2ccncc2)CCN(C)C1 (centres unmarked)', 77),
  ('COc1ccc2c(c1)c1c(n2CC(C)(O)c2ccncc2)CCN(C)C1 (centres unmarked)', 45),
  ('CCCC/C(=C\n1c2c(c3cc(Cl)ccc31)CN(C)CC2)c1ccc(F)cc1', 100),
  ('CN1CCc2c(c3cc(Cl)ccc3n2CC(O)c2ccncc2)C1 (centres unmarked)', 74),
  ('CN1CCc2c(c3cc(Cl)ccc3n2C/C(=C\CCO)c2ccc(F)cc2)C1', 93),
  ('C/C(=C\n1c2c(c3cc(C)ccc31)CN(C)CC2)c1cccnc1', 95),
  ('CN1CCc2c(c3cc(Cl)ccc3n2C#Cc2ccc(Cl)cc2)C1', 84),
  ('CCCCC(O)(Cn1c2c(c3cc(Cl)ccc31)CN(C)CC2)c1ccc(F)cc1 (centres unmarked)', 48),
  ('C/C(=C\n1c2c(c3ccc(F)cc31)CN(C)CC2)c1ccc(F)cc1', 90),
  ('C=C(Cn1c2c(c3cccc(F)c31)CN(C)CC2)c1ccc(F)cc1', 87),
  ('CN1CCc2c(c3cc(Cl)ccc3n2CC(O)(c2ccc(F)cc2)C2CC2)C1 (centres unmarked)', 93),
  ('C=C(Cn1c2c(c3cc(C)ccc31)CN(C)CC2)c1ccc(O)cc1', 92),
  ('C/C(=C\n1c2c(c3cc(Cl)ccc31)CN(C)CC2)c1ccc(Cl)c(Cl)c1', 90),
  ('Cc1ccc2c(c1)c1c(n2CC(C)(O)c2ccc(O)cc2)CCN(C)C1 (centres unmarked)', 94),
  ('COc1ccc(/C(C)=C/n2c3c(c4cc(C)ccc42)CN(C)CC3)cc1F', 97),
  ('C/C(=C\n1c2c(c3cc(Cl)ccc31)CN(C)CC2)c1cc(F)c(F)cc1Cl', 96),
  ('CN1CCc2c(c3cccc(F)c3n2CC(C)(O)c2ccncc2)C1 (centres unmarked)', 41),
  ('Cc1ccc(C#Cn2c3c(c4cc(Cl)ccc42)CN(C)CC3)cn1', 83),
  ('CN1CCc2c(c3ccccc3n2CC(C)(O)c2ccncc2)C1 (centres unmarked)', 37);
